System: JHH7
Assay: CCK-8 cytotoxicity assay, JHH7
Type: cell-based
Details: JHH7, 72 h
EXPERIMENTAL ENDPOINT: pIC50
Recall that pIC50 is obtained by taking minus log10 of the concentration measured in molar.

Sample records with pIC50:
| COMPOUND | EXPERIMENTAL SYSTEM | READOUT VALUE |
| --- | --- | --- |
| O=C1[O][Pt]2([NH][C@@H]3CCCC[C@H]3[NH]2)[O]C1=O | JHH7 | 5.15 |
| CC1CCC2C(C)C(OCCNCCOC3OC4OC5(C)CCC6C(C)CCC(C3C)C46OO5)OC3OC4(C)CCC1C32OO4 (centres unmarked) | JHH7 | 5.67 |

// switching to the query compound
Q: Please give the measured pIC50 for this compound: CC1CCC2C(C)C(OCCN(C#N)CCOC3OC4OC5(C)CCC6C(C)CCC(C3C)C46OO5)OC3OC4(C)CCC1C32OO4 (centres unmarked)
A: 6.10

----------
Catalogue of pIC50 values
System: HEK-293T
Experiment: CCK-8 cytotoxicity assay, HEK-293T (normal cell line)
Assay type: cell-based
Settings: 72 h
pIC50: −log10 of the molar value.

| COMPOUND SMILES | EXPERIMENTAL SYSTEM | pIC50 |
| --- | --- | --- |
| N.N.[Cl][Pt][Cl] | HEK-293T | < 5.00 |

Next up:
Q: Quick one: pIC50 of `O=C1[O][Pt]2([NH][C@@H]3CCCC[C@H]3[NH]2)[O]C1=O` ?
A: < 5.00

----------
Tested on: HCT116
Experiment: CCK-8 cytotoxicity assay, HCT116
Type: cell-based
Settings: Homo sapiens, HCT-116; HCT116, 72 h
EXPERIMENTAL ENDPOINT: pIC50
Please keep in mind that pIC50 is minus log10 of the molar concentration; only the number is needed.

| MOLECULE | EXPERIMENTAL SYSTEM | EXPERIMENTAL ENDPOINT | READOUT VALUE |
| --- | --- | --- | --- |
| CC1CCC2C(C)C(OCCN(C#N)CCOC3OC4OC5(C)CCC6C(C)CCC(C3C)C46OO5)OC3OC4(C)CCC1C32OO4 (stereo not drawn) | HCT116 | pIC50 | 5.99 |

Next item in the queue.
Q: Look up pIC50 for this molecule: CC1CCC2C(C)C(OCCNCCOC3OC4OC5(C)CCC6C(C)CCC(C3C)C46OO5)OC3OC4(C)CCC1C32OO4 (stereo not drawn)
A: 5.30

----------
System: HeLa
Test: CCK-8 cytotoxicity assay, HeLa
Assay type: cell-based
Conditions: Homo sapiens, 72 h
EXPERIMENTAL ENDPOINT: IC50 (nM)
Please give a number only; it is taken to be in nM.

| COMPOUND | EXPERIMENTAL SYSTEM | EXPERIMENTAL ENDPOINT | UNIT NAME | READOUT VALUE |
| --- | --- | --- | --- | --- |
| CC1CCC2C(C)C(OCCNCCOC3OC4OC5(C)CCC6C(C)CCC(C3C)C46OO5)OC3OC4(C)CCC1C32OO4 (stereo not drawn) [SM1044] | HeLa | IC50 | nM | 2280 |

Q: Form: Entry = CC1CCC2C(C)C(OCCN(C#N)CCOC3OC4OC5(C)CCC6C(C)CCC(C3C)C46OO5)OC3OC4(C)CCC1C32OO4 (stereo not drawn) [ZQJ29] | System = HeLa | IC50 = ____
A: 1280

Hello, the source for this data is paper PMC12362764, in case you need it.
